The measurements presented in this section are drawn from patent US8394792B2.

experimentSummary: Test for solubility according to pH
Format: physicochemical
runParameters: 37 °C, pH 6.8, aqueous buffer, thermodynamic from solid, second solution pH about 6.8, 2 mg/mL, 37° C. 2 hours; read-out: Solubility (μg/mL) pH 6.8
What solubility at 2 h was measured for each of the following?
Numbers only here, please. The scale is µg/mL.

Return reported solubility at 2 h; argument: O=C(c1cnc(O)nc1O)N1CCOc2ccncc21 [Compound 59]
676

Return reported solubility at 2 h; argument: CC1(C)CN(C(=O)c2cc(Br)c(O)c(Br)c2)c2cnccc2O1 [Compound 8]
344

Return reported solubility at 2 h; argument: O=C(c1cc(Cl)c(O)c([N+](=O)[O-])c1)N1CCOc2cnccc21 [Compound 36]
743

Return reported solubility at 2 h; argument: O=C(c1cc(Br)c(O)c(Br)c1)N1CCOc2ncc(C(F)(F)F)cc21 [Compound 22-2]
153

Return reported solubility at 2 h; argument: O=C(c1cc(Cl)c(O)c([N+](=O)[O-])c1)N1CCOc2ccncc21 [Compound 14]
747

Return reported solubility at 2 h; argument: O=C(c1cc(Br)c(O)c(Br)c1)N1CCOc2ccnc(Cl)c21 [Compound 30]
332

Return reported solubility at 2 h; argument: O=C(c1cc(O)no1)N1CCOc2ccncc21 [Compound 44]
2100

Return reported solubility at 2 h; argument: N#Cc1cnc2c(c1)N(C(=O)c1cc(Br)c(O)c(Br)c1)CCO2 [Compound 47-2]
330

Return reported solubility at 2 h; argument: O=C(c1cc(Br)c(O)c(Br)c1)N1CCOc2ncncc21 [Compound 62]
624
